Assay: side by side comparison of 64Cu labeled SR-CP-05 with NT peptide analogs and 3BP-227 (FIG. 8), tumor uptake and contrast
Format: in vivo
Conditions: tumor, other: injection (kind of injection not stated), FIG. 8 side by side comparison; 1 hr post injection
Measure: tissue uptake at 1 hr (%ID/g)
Expressed in %ID/g, but write only the number.

**Q:** Check the records and state tissue uptake at 1 hr for CNC(=O)c1ccc(-n2nc(C(=O)NC3(C(=O)O)C4CC5CC(C4)CC3C5)cc2-c2c(OC)cccc2OC)c(C(C)C)c1 (stereo not shown)
**A:** 15.6

###

Assay: microPET imaging and biodistribution of 18F labeled NTS peptide agent in PC3 tumor-bearing nude mice
Type: in vivo
Conditions: male, athymic nude, mouse, tumor and kidney; PC3 tumor model; biodistribution at 3 hr post injection; read-out: tumor/kidney ratio
Protocol: The arrow indicates tumor. […] Stabilized NTS peptide derivatives and constructed NTSR1 PET agents have been developed. A stabilized NTS analog with a Cys for ^18F labeling (Cys-NTSmut: Cys-pipGly-Pro-pipAmGly-Arg-Pro-Tyr-tBuGly-Leu-OH) was designed. […] Biodistribution studies were performed at 3 hr post injection, showing the tumor to muscle, liver, and kidney ratios at 19.4±5.5, 15.6±4.1, and 3.0±0.3, respectively. […] Despite the high contrast, its tumor retention is low. […]
Where a SMILES comes first, the peptide text is derived from it. [ ]: non-standard residue; d: D form. The star is where a group is joined. Gly(1-amidinopiperidin-4-yl) = N=C(N)N1CCC([C@H](N)C(=O)O)CC1; Gly(piperidin-4-yl) = N[C@H](C(=O)O)C1CCNCC1; Tle = CC(C)(C)[C@H](N)C(=O)O; X1 = O=S(=O)(CCOCCOCCF)CC*
Measure: tissue to tissue ratio at 3 h
Note: the reply should be a number with no unit written.

**Q:** Check the records and state tissue to tissue ratio at 3 h for CC(C)C[C@H](NC(=O)[C@@H](NC(=O)[C@H](Cc1ccc(O)cc1)NC(=O)[C@@H]1CCCN1C(=O)[C@H](CCCNC(=N)N)NC(=O)[C@@H](NC(=O)[C@@H]1CCCN1C(=O)[C@@H](NC(=O)[C@@H](N)CSCCS(=O)(=O)CCOCCOCCF)C1CCNCC1)C1CCN(C(=N)N)CC1)C(C)(C)C)C(=O)O [^18F-VS-Cys-NTSmut] (H-C(X1)[Gly(piperidin-4-yl)]P[Gly(1-amidinopiperidin-4-yl)]RPY[Tle]L-OH; N-terminus assumed)
**A:** 3

###

Test: microPET imaging and biodistribution of 18F labeled NTS peptide agent in PC3 tumor-bearing nude mice
Type: in vivo
Conditions: male, athymic nude, mouse, tumor and muscle; PC3 tumor model; biodistribution at 3 hr post injection; read-out: tumor/muscle ratio
Description: The arrow indicates tumor. […] Stabilized NTS peptide derivatives and constructed NTSR1 PET agents have been developed. A stabilized NTS analog with a Cys for ^18F labeling (Cys-NTSmut: Cys-pipGly-Pro-pipAmGly-Arg-Pro-Tyr-tBuGly-Leu-OH) was designed. […] Biodistribution studies were performed at 3 hr post injection, showing the tumor to muscle, liver, and kidney ratios at 19.4±5.5, 15.6±4.1, and 3.0±0.3, respectively. […] Despite the high contrast, its tumor retention is low. […]
Where a SMILES comes first, the peptide text is derived from it. [ ]: non-standard residue; d: D form. The star is where a group is joined. Gly(1-amidinopiperidin-4-yl) = N=C(N)N1CCC([C@H](N)C(=O)O)CC1; Gly(piperidin-4-yl) = N[C@H](C(=O)O)C1CCNCC1; Tle = CC(C)(C)[C@H](N)C(=O)O; X1 = O=S(=O)(CCOCCOCCF)CC*
Measure: tissue to tissue ratio at 3 h
Note: the reply should be a number with no unit written.

**Q:** Check the records and state tissue to tissue ratio at 3 h for CC(C)C[C@H](NC(=O)[C@@H](NC(=O)[C@H](Cc1ccc(O)cc1)NC(=O)[C@@H]1CCCN1C(=O)[C@H](CCCNC(=N)N)NC(=O)[C@@H](NC(=O)[C@@H]1CCCN1C(=O)[C@@H](NC(=O)[C@@H](N)CSCCS(=O)(=O)CCOCCOCCF)C1CCNCC1)C1CCN(C(=N)N)CC1)C(C)(C)C)C(=O)O [^18F-VS-Cys-NTSmut] (H-C(X1)[Gly(piperidin-4-yl)]P[Gly(1-amidinopiperidin-4-yl)]RPY[Tle]L-OH; N-terminus assumed)
**A:** 19.4
